- System: Fibroblast
- EXPERIMENTAL PROTOCOL: Multiplex assay against human fibroblast
- Format: toxicity, cell-based
- TEST SETTINGS: 48 h, 10 µM, compound concentration 10 uM, replicate 1
MEASUREMENT NAME: Population Tubulin-Different-Phenotype (%)

1. Cl.NCCc1ccc(O)c(O)c1 [DOPAMINE HYDROCHLORIDE]	25
2. CN[C@@H](C)C(=O)N[C@H](C(=O)N1CCC[C@H]1C(=O)Nc1snnc1-c1ccccc1)C1CCCCC1 [GDC-0152]	81
3. N#Cc1cc(F)cc(-c2nc(-c3ccc(F)cn3)no2)c1	28
4. COc1ccccc1N1CCN(C[C@@H](C(=O)NC(C)(C)C)c2ccccc2)CC1.Cl.Cl	65
5. CC(/C=C1\SC(=S)N(CCCC(=O)Nc2ccc(C(=O)O)c(O)c2)C1=O)=C\c1ccccc1	33
